These data points were gathered from patent EP2241555A1.

target: Rac1 (Homo sapiens); construct: endogenous in cells; host or cells: human cultured smooth muscle cells, stimulated with PDGF-BB; assay: G-LISA assay of intracellular Rac1-GTP in PDGF-BB stimulated human smooth muscle cells; type: cell-based; details: Concentration 100 µm; 4 hours incubation, then PDGF-BB 10 ng/ml; Rac1-GTP detected relative to control (100), lower = more inhibition; read-out: Rac1 inhibitory activity (% vs control)
measured endpoint: remaining activity at 100 µM (%)

• CCN(CC)CCCC(C)Nc1nccc(Nc2ccc3cc[nH]c3c2)n1 (stereo not shown) [CWB023/02053] = 98
• CCN(CC)CCCCNc1nc(C)cc(NCCc2c[nH]c3ccc(O)cc23)n1 [CWB026/02057] = 108
• CCN(CC)CCCC(C)Nc1nc(C)cc(NCCc2c[nH]c3ccc(O)cc23)n1 (stereo not shown) [CWB025/02056] = 123
• CCN(CC)CCCC(C)Nc1cc(C)nc(NCCc2c[nH]c3ccc(O)cc23)n1 (stereo not shown) [CWB027/02058] = 111
